Measured values drawn from patent US4870097A for this set.

System: analgesic activity of morphine
Test: Tail Flick Test: increase in the analgesic effect of morphine
Format: in vivo, rats
Settings: 90'; compound 10 mg/kg i.p. + morphine 2 mg/kg (row Morphine: alone); ± S.E.
Experimental: Increase in the analgesic effect of analgesic-narcotic drugs in rats in the Tail Flick Test The method is that described by Harris et al. (J. Pharmacol. Exp. Ther. 143 (1964) 141-148). Male rats are used which have a weight of about 150-200 g and which have not been fasting. A point is chosen on the tail and this is irradiated by a heat source (75° C.) and the time (in seconds) for which the animal remains without moving its tail is measured. […]
READOUT LABEL: percentage variation in the latency of the pain sensation, 90' (%)

MOLECULE: CCc1ccc(COC(=O)N[C@@H](Cc2c[nH]c3ccccc23)C(=O)O)cc1 [Compound 9]
STUDY SYSTEM: analgesic activity of morphine
UNIT ANNOTATION: %
ASSAY VALUE: 40.8
//
MOLECULE: CCCCCCCCCc1ccc(C(=O)N[C@@H](Cc2c[nH]c3ccccc23)C(=O)O)cc1 [Compound 28]
STUDY SYSTEM: analgesic activity of morphine
UNIT ANNOTATION: %
ASSAY VALUE: 78.8
//
MOLECULE: O=C(N[C@@H](Cc1c[nH]c2ccccc12)C(=O)O)c1ccc(C(F)(F)F)cc1 [Compound 30]
STUDY SYSTEM: analgesic activity of morphine
UNIT ANNOTATION: %
ASSAY VALUE: 24.7
//
MOLECULE: CCCCCc1ccc(C(=O)N[C@@H](Cc2c[nH]c3ccccc23)C(=O)O)cc1 [Compound 25]
STUDY SYSTEM: analgesic activity of morphine
UNIT ANNOTATION: %
ASSAY VALUE: 82.9
//
MOLECULE: CCCCCCCc1ccc(C(=O)N[C@@H](Cc2c[nH]c3ccccc23)C(=O)O)cc1 [Compound 27]
STUDY SYSTEM: analgesic activity of morphine
UNIT ANNOTATION: %
ASSAY VALUE: 88.4
//
MOLECULE: Cc1ccc(COC(=O)N[C@@H](Cc2c[nH]c3ccccc23)C(=O)O)cc1 [Compound 8]
STUDY SYSTEM: analgesic activity of morphine
UNIT ANNOTATION: %
ASSAY VALUE: 54.4
//
MOLECULE: N#Cc1ccc(COC(=O)N[C@@H](Cc2c[nH]c3ccccc23)C(=O)O)cc1 [Compound 11]
STUDY SYSTEM: analgesic activity of morphine
UNIT ANNOTATION: %
ASSAY VALUE: 50.9
//
MOLECULE: O=C(N[C@@H](Cc1c[nH]c2ccccc12)C(=O)O)OCc1ccc(Cl)c(Cl)c1 [Compound 6]
STUDY SYSTEM: analgesic activity of morphine
UNIT ANNOTATION: %
ASSAY VALUE: 71.9
//
MOLECULE: CCCCc1ccc(C(=O)N[C@@H](Cc2c[nH]c3ccccc23)C(=O)O)cc1 [Compound 23]
STUDY SYSTEM: analgesic activity of morphine
UNIT ANNOTATION: %
ASSAY VALUE: 36.1
//
MOLECULE: CC(C)Cc1ccc(C(=O)N[C@@H](Cc2c[nH]c3ccccc23)C(=O)O)cc1 [Compound 24]
STUDY SYSTEM: analgesic activity of morphine
UNIT ANNOTATION: %
ASSAY VALUE: 32.7
//
MOLECULE: O=C(N[C@@H](Cc1c[nH]c2ccccc12)C(=O)O)OCc1ccc(I)cc1 [Compound 4]
STUDY SYSTEM: analgesic activity of morphine
UNIT ANNOTATION: %
ASSAY VALUE: 19.4
//
MOLECULE: Cc1cccc(C(=O)N[C@@H](Cc2c[nH]c3ccccc23)C(=O)O)c1 [Compound 21]
STUDY SYSTEM: analgesic activity of morphine
UNIT ANNOTATION: %
ASSAY VALUE: 56.3
//
MOLECULE: CCc1ccc(C(=O)N[C@@H](Cc2c[nH]c3ccccc23)C(=O)O)cc1 [Compound 19]
STUDY SYSTEM: analgesic activity of morphine
UNIT ANNOTATION: %
ASSAY VALUE: 14.4
//
MOLECULE: CN1CC[C@]23c4c5ccc(O)c4O[C@H]2[C@@H](O)C=C[C@H]3[C@H]1C5 [Morphine, morphine, reference compound]
STUDY SYSTEM: analgesic activity of morphine
UNIT ANNOTATION: %
ASSAY VALUE: -6.4
//
MOLECULE: O=C(N[C@@H](Cc1c[nH]c2ccccc12)C(=O)O)OCc1ccc(Br)cc1 [Compound 3]
STUDY SYSTEM: analgesic activity of morphine
UNIT ANNOTATION: %
ASSAY VALUE: 53.7
//
MOLECULE: O=C(N[C@@H](Cc1c[nH]c2ccccc12)C(=O)O)OCc1cccc(Cl)c1 [Compound 5]
STUDY SYSTEM: analgesic activity of morphine
UNIT ANNOTATION: %
ASSAY VALUE: 52.2
//
MOLECULE: O=C(N[C@@H](Cc1c[nH]c2ccccc12)C(=O)O)c1ccc(Br)cc1 [Compound 13]
STUDY SYSTEM: analgesic activity of morphine
UNIT ANNOTATION: %
ASSAY VALUE: 12.6
//
MOLECULE: O=C(N[C@@H](Cc1c[nH]c2ccccc12)C(=O)O)c1ccc(Cl)cc1 [Compound 12]
STUDY SYSTEM: analgesic activity of morphine
UNIT ANNOTATION: %
ASSAY VALUE: 16.3
//
MOLECULE: O=C(N[C@@H](Cc1c[nH]c2ccccc12)C(=O)O)c1ccc(Cl)c(Cl)c1 [Compound 17]
STUDY SYSTEM: analgesic activity of morphine
UNIT ANNOTATION: %
ASSAY VALUE: 29.6
//
MOLECULE: O=C(N[C@@H](Cc1c[nH]c2ccccc12)C(=O)O)c1ccc(F)cc1 [Compound 14]
STUDY SYSTEM: analgesic activity of morphine
UNIT ANNOTATION: %
ASSAY VALUE: 61.5
//
MOLECULE: O=C(N[C@@H](Cc1c[nH]c2ccccc12)C(=O)O)c1ccc(I)cc1 [Compound 15]
STUDY SYSTEM: analgesic activity of morphine
UNIT ANNOTATION: %
ASSAY VALUE: 60.3
//
MOLECULE: CC(C)c1ccc(C(=O)N[C@@H](Cc2c[nH]c3ccccc23)C(=O)O)cc1 [Compound 20]
STUDY SYSTEM: analgesic activity of morphine
UNIT ANNOTATION: %
ASSAY VALUE: 33.2
